Data credit: paper PMC10397247

# tested target: T1, 4H1831-bH
# T1 chain: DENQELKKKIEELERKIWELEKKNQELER
# test details: two-hybrid library CCNG1;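 note: natural log of median RNA to DNA barcode read ratio; higher means stronger binding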
measured metric: interaction score

binder: DEIQELEKEIEELKRKIWELKKKNQELKR [4H112-bH]
measured number: 0.143
//
binder: DEIQELEKENEELERKIWELKKEIQELKR [4H170-bH]
measured number: -0.0127
//
binder: DENQELEKENEELEREIWELEKKIQELKR [4H1158-bH]
measured number: 0.197
//
binder: DENQELKKKIEELERKIWELEKKNQELER [4H1831-bH]
measured number: -0.611
//
binder: DEIQELEKEIEELKRKNWELEKKIQELKR [4H118-bH]
measured number: -0.127
//
binder: DENQELEKEIEELERKNWELKKEIQELER [4H1081-bH]
measured number: -1.05
